// provenance: patent US20100311729A1

Recorded measurements of IC50, one per entry
biological target: PI3K delta (Homo sapiens, UniProt O00329); construct: for the full-length p110-d subunit are generated and fused by overlapping PCR; His tag (C); Tn5 (Trichoplusia ni) or TiniPro insect cells; assay: PI3 kinase assay (Kinase-Glo luminescence), PI3K delta; conditions: Enzymatic Data; read-out: PI3K delta IC50 [umol]
Sequence (O00329 with tags, fused parts or gaps limits assumed): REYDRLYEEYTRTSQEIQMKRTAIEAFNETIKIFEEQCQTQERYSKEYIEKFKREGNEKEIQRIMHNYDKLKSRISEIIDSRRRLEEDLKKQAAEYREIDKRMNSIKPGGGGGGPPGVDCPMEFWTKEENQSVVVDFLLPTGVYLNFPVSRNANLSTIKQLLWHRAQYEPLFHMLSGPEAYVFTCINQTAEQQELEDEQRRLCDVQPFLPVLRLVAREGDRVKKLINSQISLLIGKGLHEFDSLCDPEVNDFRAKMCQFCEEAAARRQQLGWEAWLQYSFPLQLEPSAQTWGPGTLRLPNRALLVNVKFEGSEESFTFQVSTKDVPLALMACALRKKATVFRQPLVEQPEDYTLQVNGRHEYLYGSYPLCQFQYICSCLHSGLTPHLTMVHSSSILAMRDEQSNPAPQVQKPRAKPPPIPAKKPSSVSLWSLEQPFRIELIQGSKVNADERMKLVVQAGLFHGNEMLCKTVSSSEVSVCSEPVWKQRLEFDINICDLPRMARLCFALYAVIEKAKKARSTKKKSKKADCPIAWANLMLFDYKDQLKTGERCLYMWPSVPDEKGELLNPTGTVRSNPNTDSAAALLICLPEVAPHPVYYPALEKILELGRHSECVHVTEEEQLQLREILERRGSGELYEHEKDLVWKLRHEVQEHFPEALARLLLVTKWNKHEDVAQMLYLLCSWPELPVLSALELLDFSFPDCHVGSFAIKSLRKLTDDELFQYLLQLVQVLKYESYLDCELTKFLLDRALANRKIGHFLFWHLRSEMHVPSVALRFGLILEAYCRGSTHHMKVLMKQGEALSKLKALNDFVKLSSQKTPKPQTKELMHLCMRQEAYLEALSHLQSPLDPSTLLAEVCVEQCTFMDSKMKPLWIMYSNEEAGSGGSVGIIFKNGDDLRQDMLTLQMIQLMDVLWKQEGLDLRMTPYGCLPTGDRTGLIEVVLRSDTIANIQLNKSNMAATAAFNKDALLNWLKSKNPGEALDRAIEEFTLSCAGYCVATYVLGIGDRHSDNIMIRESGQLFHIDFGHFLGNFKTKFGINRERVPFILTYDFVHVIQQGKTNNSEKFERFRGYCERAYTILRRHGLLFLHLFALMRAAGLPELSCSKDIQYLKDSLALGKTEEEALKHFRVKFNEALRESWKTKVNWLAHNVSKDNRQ

Consider the following illustrative entries.
Nc1ncc(-c2ccc3ncc(-c4ccc(C(=O)NCCN5CCOCC5)cc4F)n3n2)cc1C(F)(F)F: 27 nM
CCS(=O)(=O)c1ccc(-c2cnc3ccc(-c4cnc(N)c(C(F)(F)F)c4)nn23)cc1: 103 nM
COc1cc(-c2cnc3ccc(-c4cnc(N)c(C(F)(F)F)c4)nn23)ccc1C(=O)O: 10 nM
Nc1ncc(-c2cnc3ccc(-c4cnc(N)c(C(F)(F)F)c4)nn23)cn1: 9 nM
CN(C)C(=O)c1ccc(CNC(=O)c2ccc(-c3cnc4ccc(-c5cnc(N)c(C(F)(F)F)c5)nn34)cc2)cc1: 23 nM

The measured IC50 associated with `CC(C)(C)OC(=O)NCCCOc1ccc(-c2ccc3ncc(-c4cnc(N)c(C(F)(F)F)c4)n3n2)cc1OC(F)(F)F` reads > 9100 nM

The measured IC50 associated with `COc1cc(-c2ccc3ncc(-c4cnc(N)c(C(F)(F)F)c4)n3n2)ccc1OCCNC(=O)C(C)C` reads 223 nM

The measured IC50 associated with `Nc1ncc(-c2cnc3ccc(-c4ccc(OCCNC(=O)C5CC5)cc4)nn23)cc1C(F)(F)F` reads 202 nM

The measured IC50 associated with `COc1cc(-c2ccc3ncc(-c4cnc(N)c(C(F)(F)F)c4)n3n2)ccc1OCCNC(=O)C1CC1` reads 428 nM

The measured IC50 associated with `Nc1ncc(-c2ccc3ncc(-c4ccc(C(=O)N5CCN(CCc6ccccn6)CC5)cc4)n3n2)cc1C(F)(F)F` reads 59 nM

The measured IC50 associated with `O=C(NCCCOc1ccc(-c2ccc3ncc(-c4cnc5[nH]ccc5c4)n3n2)cc1)C1CC1` reads 280 nM
